System: MDA-MB-231 breast
assay_comment: NCI-60 one-dose screen, 48 h (100 = growth as untreated, 0 = no growth, -100 = all killed)
condition_summary: 10 µM unless noted
Compounds without any hit were thinned out: in the full panel of roughly 83,000, 20% have a hit.
Label key: criterion met means growth under 40%; criterion not met means growth of 40% or more.

[[record]]
compound = "Cc1cc(N(CCNc2ccnc3cc(Cl)ccc23)Cc2ccc3c(c2)OCO3)nc(N2CCCC2)n1"
label_value = "criterion met"

[[record]]
compound = "C=CC(=O)N1CCC[C@@H](n2nc(-c3ccc(Oc4ccccc4)cc3)c3c(N)ncnc32)C1"
label_value = "criterion not met"

[[record]]
compound = "CCN1CCN(Cc2ccc(-c3cc4c(N[C@H](C)c5ccccc5)ncnc4[nH]3)cc2)CC1"
label_value = "criterion met"

[[record]]
compound = "Nc1cc(C(F)(F)F)c(-c2cc(N3CCOCC3)nc(N3CCOCC3)n2)cn1"
label_value = "criterion met"

[[record]]
compound = "C=CCN1C(=O)c2cccc3c(-c4ccc5c(c4)ncn5C4CCCCC4)ccc(c23)C1=O"
label_value = "criterion not met"

[[record]]
compound = "C1=C\\COCc2cc(ccc2OCCN2CCCC2)Nc2nccc(n2)-c2cccc(c2)COC/1"
label_value = "criterion met"

[[record]]
compound = "COc1cc2ncnc(Nc3ccc(O)cc3)c2cc1OC"
label_value = "criterion not met"

[[record]]
compound = "COC(=O)[C@H](C)NC(=O)[C@@H](OC)[C@@H]1Cc2cc3cc(OC4CC(OC5CC(O)C(O)C(C)O5)C(O)C(C)O4)c(C)c(O)c3c(O)c2C(=O)[C@H]1OC1CC(OC2CC(OC3CC(C)(O)C(O)C(C)O3)C(O)C(C)O2)C(O)C(C)O1 (stereo partly drawn)"
label_value = "criterion met"

[[record]]
compound = "C[C@@]1(C(=O)Nc2ccc(F)nc2)CCCN1c1nc(Nc2cc(C3CC3)[nH]n2)c2cccn2n1"
label_value = "criterion met"

[[record]]
compound = "CCN(CCCOc1ccc2c(Nc3cc(CC(=O)Nc4cccc(F)c4)[nH]n3)ncnc2c1)CCOP(=O)(O)O"
label_value = "criterion not met"

[[record]]
compound = "CC(=O)OC(C(=O)c1ccccc1)c1ccccc1 (stereo not drawn)"
label_value = "criterion not met"

[[record]]
compound = "CNC(=O)c1cc(Oc2cccc3nc(Nc4ccc(Cl)c(F)c4)ccc23)ccn1"
label_value = "criterion not met"

[[record]]
compound = "CC(=O)C1CC(C)CCC1C(C)C (stereo not drawn)"
label_value = "criterion not met"

[[record]]
compound = "Cc1ccsc1C(NC(=O)c1ccccc1)c1cc(Cl)c2cccnc2c1O (stereo not drawn)"
label_value = "criterion met"

[[record]]
compound = "Nc1c(Cl)cccc1[N+](=O)[O-]"
label_value = "criterion not met"

[[record]]
compound = "Cc1nn(-c2nc3ccccc3[nH]2)c2c1C(c1ccc(OCc3ccc(F)cc3)cc1)CC(=O)N2 (stereo not drawn)"
label_value = "criterion not met"

[[record]]
compound = "O=C(NOCCO)c1ccc2cncn2c1Nc1ccc(I)cc1F"
label_value = "criterion met"

[[record]]
compound = "CCN(CC)CCCC(C)Nc1cc(-c2ccc(C(F)(F)F)cc2)c(C#N)c2nc3ccccc3n12 (stereo not drawn)"
label_value = "criterion met"

[[record]]
compound = "COc1cccc(NC(=O)Nc2ccc(Nc3ncnc4sc5c(c34)CCN(C(=O)CCl)C5)cc2)c1"
label_value = "criterion not met"

[[record]]
compound = "COc1cnc2c(c1)C(=O)c1c-2n(CCCN2CCOCC2)c(=O)c2cc(Cl)ccc12"
label_value = "criterion not met"

[[record]]
compound = "COC(=O)C1CCc2sc3ncnc(Nc4cn[nH]c4C(=O)Nc4ccc(CN5CCN(C)CC5)cc4)c3c21 (stereo not drawn)"
label_value = "criterion met"

[[record]]
compound = "Cc1[nH]n(C(N)=S)c(=O)c1N=Nc1ccc(S(=O)(=O)Nc2ccncn2)cc1"
label_value = "criterion not met"

[[record]]
compound = "C[C@@H](C[C@H](CCO)c1cc(C(F)(F)F)cc(C(F)(F)F)c1)c1ccc2ccccc2c1"
label_value = "criterion not met"

